Method: yeast display, Sf9 membrane polyspecificity reagent, FACS + sequencing; frameworks hold sequencing errors
Value Type: polyreactivity (PSR sort gate)

Here's what some known entries look like.
{"Macromolecule Sequence": "QVQLVESGGGLVQAGGSLRLSCAASGITFYYNAMGWYRQAPGKERELVAAIRSAGSTYYADSVKGRFTISRDNAKNTVYLQMNSLKPEDTAVYYCAAEDGNTDQVRVYWIMDYWGQGTQVTVSS", "polyreactivity (PSR sort gate)": "low polyreactivity"}
{"Macromolecule Sequence": "QVQLVESGGGLVQAGGSLRLSCPASGSIFPTYAMGRYRQAPGKERELVAAITTSGGNTFYADSVKGRFTISRDNAKNTVYLQMNRLKPEDTAVYYCAAYYSPYTVEYDYWGQGTLVTVSS", "polyreactivity (PSR sort gate)": "low polyreactivity"}
{"Macromolecule Sequence": "QVQLVESVGGLVQAGVSLRLSCAASGRIFGRYPMGWYRQAPGKERELVAAISFNGGSTSYADSVKGRFTISRDNAKNTVYLQMNSLKQEDTAVYYCAAKYRGFNYWGQGTQVTVSS", "polyreactivity (PSR sort gate)": "high polyreactivity"}
{"Macromolecule Sequence": "QVQLVESGGGLVQAGGSLRLSCAASGSTFSPYAMGWYRQAPGKERELVANITISGGSTYYADSVKGRFTISRDNAKNTVYIQMNSLKPEDTAVYYCNADSLIRWLFTVVIFDYWGQGTLVTVSS", "polyreactivity (PSR sort gate)": "low polyreactivity"}

Which value of polyreactivity (PSR sort gate) has been reported for QLQLVESGGGLVQAGGSLRLSCAASGRIFKLNAMGWSRQAPGKERELVAAINSGTRTYYADSVKGRFTISRDNAKNTVYLQMNSLKPEDTAVYYCAAEGVWWYSRYDYWGQGTQVTVSS in the records?
high polyreactivity

----------
Method: yeast display, Sf9 membrane polyspecificity reagent, FACS + sequencing; frameworks hold sequencing errors

{"Macromolecule Sequence": "QVQLVESWGGLVQAGGSLRLSCAASGLTFVKNAMGWYRQAPGKERELVAAITRTGGSTYYADSVKVRFTISRDNAKNTFYLQMNSLKPEDPAVYYCASRTPSPRRTKTAVDYWGQGTQVTVSS", "polyreactivity (PSR sort gate)": "high polyreactivity"}
{"Macromolecule Sequence": "QVHLVESGGGLVQAGGSLRLSCAASGFIYWAYAMGWYRQAPGKERELVAGITRSGGSTYYADSVKGRFTISRDNAKNTVYLQMNSLKPEDTAVYYCAADFRYNGGYWGQGTQVTVSS", "polyreactivity (PSR sort gate)": "high polyreactivity"}

----------
Method: yeast display, Sf9 membrane polyspecificity reagent, FACS + sequencing; frameworks hold sequencing errors
Value Type: polyreactivity (PSR sort gate)

Examples with their reported polyreactivity (PSR sort gate) follow.
{"Macromolecule Sequence": "QVQLVESGGVLVQAGGSLRLSCAASGRTLRPYAMGWYRQAPGKERELVAAMTGGVSTDYADSVKGRFTISRDNAKNTVYLQRNSLKPEDTAVYYGAVDDRWFNHISGRYYEYYYWGQGTQVTVSS", "polyreactivity (PSR sort gate)": "low polyreactivity"}
{"Macromolecule Sequence": "QVQLVESGGGLVQAGGSLRLSCDASGSTFVRYVMRWYRHAPGKEMELVAAISRRGGSTYYADSVKGRFTISRDNAKNTVYLQMNSLKPEDTAVYYCARTVCYRTLLESDSCGQGTQVTVSS", "polyreactivity (PSR sort gate)": "high polyreactivity"}
{"Macromolecule Sequence": "QDQRVESGGGLVQAGGSLRLSCAASGRTFKGNARGWYRQAPGKERELVAAISKSGGRTYYADSVKARFTISRDNAKNTVYLQMNSLKPEDTAVYYCAVDEGPTIVRFGYSGQGTQVTVSS", "polyreactivity (PSR sort gate)": "high polyreactivity"}
{"Macromolecule Sequence": "QVQLVESGGGLVQAGGSLRLTCAASGLISTPNALGWYRQAPGKEREFVASISSRGGSTYYADSVKGRFTISRDNAMNTVYLQMNSLKPEDTAVYYCAADAYREFYYEYYYWGQGTQVTVSS", "polyreactivity (PSR sort gate)": "low polyreactivity"}

What value of polyreactivity (PSR sort gate) has been reported for the following sequence? QVQLVESGGGLVQAGGSLRLSCAASGFTFASYAMGWYRQAPGKERELVAAISGSGTSTYYADSVKGRFTISRDKAKNTVYLQMNSLKPEHTAVYYCAARRYGYRYDYWGQGTQVTVSS
high polyreactivity

Reported polyreactivity (PSR sort gate), sequence QVQLVESGGGIVQAGGSLRLSCAASGRTFFYYAMGWYRQAPGKERELVAAITTDGGTTYYADSVKGRFTISRDNAKNTVSLQMNSLKPEDTAGYYCAADASYQYYPYDYWGQGTQVTVSS : ____
low polyreactivity

Give its polyreactivity (PSR sort gate) value. Item: QVQLVESGGGLVQAGGSLRLSCAASGRTFVYNAMGWYRQAPGKERELVAAISQSGGSTYYADSVKGRFTISRDTAKNSVYLQMNSLKPEVTAVYDCAARYTTGSYVRYNFWGQGTQVTVSS
high polyreactivity

Record request: polyreactivity (PSR sort gate) value, item QVQLVESGGGLVQAGGSLRLSCAASGLIFGSYVMGWYRQAPGKERELVAAITVRTGTTYYADSVKGRFTISRDNAKNTVYLQMNSLKPEDTAVYYCARRYRPKYGYWGQGTQVTVSS
high polyreactivity

# query: polyreactivity (PSR sort gate) of entry QVQLVESGGGLVQAGGSLRLSCAASGSTFYDNAMGWYRQAPGKERELVASIRSGGSTKYADSVKGRFTISRDNAKNTVYLQMNSLKPEDTAVYYCAADVHFVKDPPVKSIYGKFYYWGQGTQVTVSS
low polyreactivity

Request the reported polyreactivity (PSR sort gate) associated with QVQLVESGGGLVQAGGSLRLSCAASGFTFRYYAMGWYRQAPGKEREFVAAIRSSGTTTSYADSVKGRFTISRDNAKNTVYLHMHSLKPEDTAVYYCAAGYFGPQQYYYWGQGTQVTVSS
high polyreactivity

For QVQLVESGGGLVQAGGSLRLSCAASGSTFKRYAMGRDRQAPGQERELVAAITWRGGSTYYADSVKGRFTISRDNAKNTVYLQMNSLKPEDTAVYYCNKASWKVGPGIGYDYWGQGTQVTVSS , what is its reported polyreactivity (PSR sort gate)?
high polyreactivity

What polyreactivity (PSR sort gate) value was documented for this sequence, QVQLVESGGGLVQAGGSLGLSCAASGSIFEPYVMGWYRPAPGKERELVAAISESGDTTYYADSVKGRFTISRDNAKNTVYLQRNSLKPEDTAVYYCNAEDPSIDGWWRVGEYDYWGQGTQVTVSS ?
low polyreactivity

I am curious: what polyreactivity (PSR sort gate) value has been reported for QVQLVESGGGLVQAGGSLRLSCAASGRIFFNYAMGWYRQAPGKERELVAAIRGGGSTYADSVKGRFTISCDNAKNTVYLQMNSLKPEDTAVYYCAARYSGSPYHTRRYYYWGQGTQVTVSS ?
high polyreactivity

What measured polyreactivity (PSR sort gate) goes with QVRLVESGGGLVQAGGSLRLSCAASGSTFPYYDMGWYRQAPGKERELVAAITWSSGSTYYADSVKGRFTISRDNAKNTVYLQMNSLKPEDTAVYYCAAELYSYREDYGAHYAYEYWGQGTQVTVSS ?
low polyreactivity

Need polyreactivity (PSR sort gate), item QVQLVESVGGLVQAGGSLRLSCAASGIIFSCYAMGWYRQAPGKERELVAAISSSGGTTFYADSVKGRFTISRDNAKNTVYLQMNSLKPVDTAVYYCAVVGPPYYTWRVWRPAYDYWGQGTQVTVSS
high polyreactivity

Form field: reported polyreactivity (PSR sort gate) of QVQLVESGGGLVQAGGSLRLSCAASGRTFRIYALGWYRQAPGTERELVATIDSGGSTNYADSVKGRFTISRDNAKNTVYFQMNSLKPEDTAVYYCNAEDKPWYYLAGQAEYDSWGQGTQVTVSS
low polyreactivity
